- test target: OATP1B1 (Homo sapiens, UniProt Q9Y6L6, N130D)
assay metric: Km (µM)
Kindly answer with a numeric value in µM, unit omitted.

Find the measured Km: item O=C1OC2(c3cc(Cl)c(O)cc3Oc3cc(O)c(Cl)cc32)c2ccccc21 , target or system OATP1B1 (Homo sapiens, UniProt Q9Y6L6, N130D). 7.22

* * *

- Tested on: human hepatocytes
assay metric: Km (µM)
Kindly answer with a numeric value in µM, unit omitted.

Looking for the measured Km of O=C1OC2(c3cc(Cl)c(O)cc3Oc3cc(O)c(Cl)cc32)c2ccccc21 [DCF, Dichlorofluorescein] , can you help? 38.6

* * *

// log10 of Ki lookup, one value per entry
- test target: OATP1B1 (Homo sapiens, UniProt Q9Y6L6, N130D)
- Sequence (Q9Y6L6 1-691 N130D): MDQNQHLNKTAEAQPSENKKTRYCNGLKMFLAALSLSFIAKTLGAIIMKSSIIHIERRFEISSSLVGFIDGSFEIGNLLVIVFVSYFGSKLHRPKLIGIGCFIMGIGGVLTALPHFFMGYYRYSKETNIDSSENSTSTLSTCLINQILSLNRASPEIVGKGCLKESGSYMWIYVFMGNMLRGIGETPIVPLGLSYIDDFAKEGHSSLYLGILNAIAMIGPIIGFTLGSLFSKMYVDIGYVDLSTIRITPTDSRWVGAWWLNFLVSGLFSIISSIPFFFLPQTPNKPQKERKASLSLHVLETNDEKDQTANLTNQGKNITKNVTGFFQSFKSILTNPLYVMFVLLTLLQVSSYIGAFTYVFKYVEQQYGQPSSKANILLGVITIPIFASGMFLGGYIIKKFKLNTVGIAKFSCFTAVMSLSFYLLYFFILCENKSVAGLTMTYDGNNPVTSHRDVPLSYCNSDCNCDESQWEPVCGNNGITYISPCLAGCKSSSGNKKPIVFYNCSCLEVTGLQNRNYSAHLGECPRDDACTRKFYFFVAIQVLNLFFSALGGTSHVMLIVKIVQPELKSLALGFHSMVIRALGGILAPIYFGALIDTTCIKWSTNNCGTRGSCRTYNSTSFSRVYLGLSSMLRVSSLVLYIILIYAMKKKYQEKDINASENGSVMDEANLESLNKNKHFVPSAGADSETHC
- assay text: OATP1B1 inhibition, DCF method (fluorescent substrate)
In our notation, the value equals log10 of Ki in µM.

// below: answered compounds
Looking for the measured log10 of Ki of CC(=O)N1CCN(c2ccc(OCC3COC(Cn4ccnc4)(c4ccc(Cl)cc4Cl)O3)cc2)CC1 (stereo not shown) , can you help? 1.19

Looking for the measured log10 of Ki of C[C@H](CCC(=O)NCCS(=O)(=O)O)[C@H]1CC[C@H]2[C@@H]3[C@H](O)C[C@@H]4C[C@H](O)CC[C@]4(C)[C@H]3C[C@H](O)[C@]12C , can you help? 0.94

Looking for the measured log10 of Ki of C=CC[C@@H]1/C=C(\C)C[C@H](C)C[C@H](OC)[C@H]2O[C@@](O)(C(=O)C(=O)N3CCCC[C@H]3C(=O)O[C@H](/C(C)=C/[C@@H]3CC[C@@H](O)[C@H](OC)C3)[C@H](C)[C@@H](O)CC1=O)[C@H](C)C[C@@H]2OC , can you help? 0.10

Looking for the measured log10 of Ki of CC[C@H]1OC(=O)[C@H](C)[C@@H](O[C@H]2C[C@@](C)(OC)[C@@H](O)[C@H](C)O2)[C@H](C)[C@@H](O[C@@H]2O[C@H](C)C[C@H](N(C)C)[C@H]2O)[C@](C)(O)C[C@@H](C)C(=O)[C@H](C)[C@@H](O)[C@]1(C)O , can you help? 0.84

Proceeding to the next compound to report its log10 of Ki.
Looking for the measured log10 of Ki of CO[C@H]1/C=C/O[C@@]2(C)Oc3c(C)c(O)c4c(O)c(c(/C=N/N5CCN(C)CC5)c(O)c4c3C2=O)NC(=O)/C(C)=C\C=C\[C@H](C)[C@H](O)[C@@H](C)[C@@H](O)[C@@H](C)[C@H](OC(C)=O)[C@@H]1C , can you help? -0.59
